metricName: Ki

For `CN1CCN(c2cc(-c3ccc(C(F)(F)F)cc3)c3ccn(S(=O)(=O)C4CCOCC4)c3n2)CC1` on UniProt P14416, measured Ki was > 2000 nM

Ki of `CC(C)CS(=O)(=O)n1ccc2c(-c3cccc(C(F)(F)F)c3)cc(N3CCN(C)CC3)nc21` , assay on UniProt P14416, is 630 nM

Log: UniProt P14416, molecule `CC(C)CS(=O)(=O)n1ccc2c(-c3ccc(C(=O)N(C)C)cc3)cc(N3CCN(C)CC3)nc21` , Ki = > 2000 nM

Ki value, target or system UniProt P14416, for `CN1CCN(c2cc(-c3ccc(C(F)(F)F)cc3)c3ccn(S(C)(=O)=O)c3n2)CC1` : 1230 nM

Summary line: `CC(C)CS(=O)(=O)n1ccc2c(-c3ccc(C(F)(F)F)cc3)cc(N3CCN(C)CC3)nc21` , UniProt P14416, reported Ki = 367 nM

UniProt P14416 data for `CC(C)CS(=O)(=O)n1ccc2c(-c3ccc(=O)[nH]c3)cc(N3CCN(C)CC3)nc21` ; its Ki: > 2000 nM
